Experiment: Single intravenous dose PK
Format: in vivo, CD-1 mouse
Conditions: CD-1, mouse, plasma; IV 100 mg/kg, female
Method: The PK of ribitol was studied in male and female CD-1 mice following three IV doses at 10, 30, and 100 mg/kg (n=3/dose/sex). Blood samples were collected serially up to 24 hours post dose.

{"Compound": "OC[C@@H](O)[C@@H](O)[C@@H](O)CO [ribitol, (2R,3s,4S)-Pentane-1,2,3,4,5-pentol]", "AUC(0-inf) [ng·h/mL]": 43100}

----------
Test: 28-day repeat-dose oral toxicokinetics
Format: in vivo, Bama minipig
Conditions: male, Bama, minipig, plasma, po, 0.1 g/kg, 0.1 g/kg/dose BID, Day 1, Male; mean ± SD; read-out: AUC0-24
Property Name: AUC(0-t) (µg·h/mL)

{"Molecule": "OC[C@@H](O)[C@@H](O)[C@@H](O)CO", "Value Unit": "µg·h/mL", "Quantitative Result": 210}

----------
Experiment: 28-day repeat-dose oral toxicokinetics
Type: in vivo, CD-1 mouse
Details: female, CD-1, mouse, plasma, po, 1 g/kg, 1.0 g/kg/dose BID, Day 1, Female

{"Compound": "OC[C@@H](O)[C@@H](O)[C@@H](O)CO [ribitol, (2R,3s,4S)-Pentane-1,2,3,4,5-pentol]", "Tmax (h)": 8.5}

----------
Assay: 28-day repeat-dose oral toxicokinetics
Assay type: in vivo, CD-1 mouse
Details: both sexes, CD-1, mouse, plasma, po, 1 g/kg, 1.0 g/kg/dose BID, Day 1, Mean of sexes; read-out: AUC0-24

{"Molecule": "OC[C@@H](O)[C@@H](O)[C@@H](O)CO [ribitol, (2R,3s,4S)-Pentane-1,2,3,4,5-pentol]", "AUC(0-t) / µg·h/mL": 540}

----------
Test: Single intravenous dose PK
Type: in vivo, CD-1 mouse
Settings: both sexes, CD-1, plasma; mouse, IV 100 mg/kg, range; read-out: Systemic clearance (CLs)

{"Compound": "OC[C@@H](O)[C@@H](O)[C@@H](O)CO [ribitol, (2R,3s,4S)-Pentane-1,2,3,4,5-pentol]", "clearance": "33.6 to 38.9 mL/min/kg"}

----------
Assay: 7-day repeat-dose oral toxicokinetics
Type: in vivo, CD-1 mouse
Settings: female, CD-1, mouse, plasma, po, 1.5 g/kg, 1.5 g/kg/dose BID, Day 1, F
Property Name: Cmax (µg/mL)

{"Compound": "OC[C@@H](O)[C@@H](O)[C@@H](O)CO [ribitol, (2R,3s,4S)-Pentane-1,2,3,4,5-pentol]", "Property Name": "Cmax", "Value Unit": "µg/mL", "Quantitative Result": 339}

----------
Assay: Single intravenous dose PK
Format: in vivo, Bama minipig
Settings: Bama, minipig, plasma; IV 30 mg/kg, female; read-out: T1/2 (converted)

{"Compound": "OC[C@@H](O)[C@@H](O)[C@@H](O)CO [ribitol, (2R,3s,4S)-Pentane-1,2,3,4,5-pentol]", "Value Unit": "min", "half-life": 44.9}

----------
Experiment: 7-day repeat-dose oral toxicokinetics
Type: in vivo, Bama minipig
Details: male, Bama, minipig, plasma, po, 0.3 g/kg, 0.3 g/kg BID, Day 7, M; read-out: AUC0-24

{"Molecule": "OC[C@@H](O)[C@@H](O)[C@@H](O)CO", "AUC(0-t)": "438 µg·h/mL"}

----------
Assay: Single intravenous dose PK
Assay type: in vivo, Bama minipig
Conditions: Bama, minipig, plasma; IV 10 mg/kg, female
Property Name: AUC(0-inf) (ng·h/mL)

{"Molecule": "OC[C@@H](O)[C@@H](O)[C@@H](O)CO", "Quantitative Result": 17000}

----------
Experiment: 28-day repeat-dose oral toxicokinetics
Assay type: in vivo, Bama minipig
Details: female, Bama, minipig, plasma, po, 1 g/kg, 1.0 g/kg/dose BID, Day 1, Female; median (range)

{"Molecule": "OC[C@@H](O)[C@@H](O)[C@@H](O)CO", "Tmax [h]": 6.8}

----------
Biological target: hERG potassium channels (Homo sapiens)
Sequence (Q12809 whole entry): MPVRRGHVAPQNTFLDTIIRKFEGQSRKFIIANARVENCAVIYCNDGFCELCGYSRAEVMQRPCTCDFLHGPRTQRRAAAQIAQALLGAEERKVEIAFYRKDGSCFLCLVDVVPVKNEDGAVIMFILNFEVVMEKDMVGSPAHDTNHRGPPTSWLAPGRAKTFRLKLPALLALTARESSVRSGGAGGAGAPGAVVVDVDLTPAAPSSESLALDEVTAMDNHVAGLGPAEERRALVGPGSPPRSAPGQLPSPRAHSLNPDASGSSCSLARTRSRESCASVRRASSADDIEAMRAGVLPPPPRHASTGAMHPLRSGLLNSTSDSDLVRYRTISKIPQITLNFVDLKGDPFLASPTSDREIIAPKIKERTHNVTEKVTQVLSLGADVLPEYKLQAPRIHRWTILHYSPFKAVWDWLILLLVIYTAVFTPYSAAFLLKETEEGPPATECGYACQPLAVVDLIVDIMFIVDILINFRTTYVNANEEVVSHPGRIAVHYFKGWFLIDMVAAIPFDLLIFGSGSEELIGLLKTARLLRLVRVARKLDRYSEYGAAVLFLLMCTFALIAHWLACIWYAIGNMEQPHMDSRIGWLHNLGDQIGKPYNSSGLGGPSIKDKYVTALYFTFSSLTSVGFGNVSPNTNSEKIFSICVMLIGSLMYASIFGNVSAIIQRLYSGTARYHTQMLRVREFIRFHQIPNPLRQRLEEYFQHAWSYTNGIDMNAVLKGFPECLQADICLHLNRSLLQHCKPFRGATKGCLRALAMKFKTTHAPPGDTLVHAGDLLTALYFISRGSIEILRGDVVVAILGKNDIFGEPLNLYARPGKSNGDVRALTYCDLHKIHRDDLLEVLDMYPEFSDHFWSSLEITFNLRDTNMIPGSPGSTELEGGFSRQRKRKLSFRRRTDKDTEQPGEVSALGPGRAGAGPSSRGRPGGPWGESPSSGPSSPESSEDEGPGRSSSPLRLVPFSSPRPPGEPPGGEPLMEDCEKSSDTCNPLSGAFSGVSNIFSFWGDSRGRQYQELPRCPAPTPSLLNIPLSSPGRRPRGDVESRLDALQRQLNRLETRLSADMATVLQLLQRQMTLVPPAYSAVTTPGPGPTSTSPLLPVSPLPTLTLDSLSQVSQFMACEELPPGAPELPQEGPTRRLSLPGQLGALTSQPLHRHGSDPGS
Property Name: IC50

{"Molecule": "OC[C@@H](O)[C@@H](O)[C@@H](O)CO", "Property Name": "IC50", "Result": "> 2900 µM"}

----------
Assay: Metabolic stability in liver microsomes, cytosol, hepatocytes
Format: in vitro ADME
Conditions: human, liver microsomes, Microsomes

{"Compound": "OC[C@@H](O)[C@@H](O)[C@@H](O)CO [ribitol, (2R,3s,4S)-Pentane-1,2,3,4,5-pentol]", "CLint scaled at 10 μM": "< 6.66 mL/min/kg"}

----------
Experiment: 7-day repeat-dose oral toxicokinetics
Format: in vivo, Bama minipig
Conditions: male, Bama, minipig, plasma, po, 0.3 g/kg, 0.3 g/kg BID, Day 7, M

{"Molecule": "OC[C@@H](O)[C@@H](O)[C@@H](O)CO", "Cmax": "58.3 µg/mL"}

----------
Assay: Phase 1 SAD/MAD study in healthy subjects
Format: in vivo, human
Conditions: human, in vivo, oral, 3 g, steady state, 6 days, 3 g q 12 h (total 6 g/day); read-out: AUC(0-24)
Property Name: AUC(0-t)

{"Molecule": "OC[C@@H](O)[C@@H](O)[C@@H](O)CO", "Result": "219 µg·h/mL"}

----------
Experiment: 28-day repeat-dose oral toxicokinetics
Format: in vivo, CD-1 mouse
Conditions: male, CD-1, mouse, plasma, po, 1 g/kg, 1.0 g/kg/dose BID, Day 1, Male

{"Molecule": "OC[C@@H](O)[C@@H](O)[C@@H](O)CO", "Value Unit": "µg/mL", "Cmax": 286}

----------
Experiment: 28-day repeat-dose oral toxicokinetics
Assay type: in vivo, Bama minipig
Settings: male, Bama, minipig, plasma, po, 2 g/kg/day, 1.0 g/kg/dose BID (2.0 g/kg/day, NOAEL), Day 28, Male; read-out: AUC0-24
Property Name: AUC(0-t) (µg·h/mL)

{"Molecule": "OC[C@@H](O)[C@@H](O)[C@@H](O)CO", "Quantitative Result": 2560}

----------
Experiment: in vivo
Set-up: species or system mouse
Details: male, CD-1, mouse, po, 3 g/kg/day, Steady-state AUC(0-24)

{"Molecule": "OC[C@@H](O)[C@@H](O)[C@@H](O)CO", "AUC(0-t)": "1340 µg·h/mL"}

----------
Assay: 7-day repeat-dose oral toxicokinetics
Assay type: in vivo, CD-1 mouse
Conditions: male, CD-1, mouse, plasma, po, 1.5 g/kg, 1.5 g/kg/dose BID, Day 7, M; read-out: AUC0-24

{"Molecule": "OC[C@@H](O)[C@@H](O)[C@@H](O)CO", "Value Unit": "µg·h/mL", "AUC(0-t)": 562}

----------
Experiment: 7-day repeat-dose oral toxicokinetics
Format: in vivo, CD-1 mouse
Details: female, CD-1, mouse, plasma, po, 1 g/kg, 1.0 g/kg/dose BID, Day 1, F; read-out: AUC0-24

{"Molecule": "OC[C@@H](O)[C@@H](O)[C@@H](O)CO", "Value Unit": "µg·h/mL", "AUC(0-t)": 427}

----------
Test: 28-day repeat-dose oral toxicokinetics
Assay type: in vivo, Bama minipig
Conditions: male, Bama, minipig, plasma, po, 0.3 g/kg, 0.3 g/kg/dose BID, Day 28, Male; mean ± SD; read-out: Cmax

{"Molecule": "OC[C@@H](O)[C@@H](O)[C@@H](O)CO", "Cmax (µg/mL)": 123}

----------
Experiment: Single oral dose PK
Format: in vivo
Conditions: Bama, minipig, plasma; single PO 0.3 g/kg, male
Property Name: half-life

{"Molecule": "OC[C@@H](O)[C@@H](O)[C@@H](O)CO", "Property Name": "half-life", "Result": "1.6 h"}

----------
Assay: Single oral dose PK
Type: in vivo, CD-1 mouse
Conditions: CD-1, mouse, plasma; single PO 0.3 g/kg, female; read-out: Tmax
Property Name: Tmax (min)

{"Molecule": "OC[C@@H](O)[C@@H](O)[C@@H](O)CO", "Property Name": "Tmax", "Value Unit": "min", "Quantitative Result": 30}

----------
Assay: 7-day repeat-dose oral toxicokinetics
Format: in vivo, Bama minipig
Details: male, Bama, minipig, plasma, po, 1 g/kg, 1.0 g/kg BID, Day 1, M; read-out: AUC0-24
Experimental: Toxicokinetics were evaluated as part of a 7-day oral repeat-dose dose range finding study in Bama minipigs. […] On Days 1 and 7, blood was taken for plasma TK at 0 (pre first dose), 0.5, 1, 2, 4, 6 (pre-second dose), 6.5, 7, 8, 10, and 24 hours post-first dose.

{"Molecule": "OC[C@@H](O)[C@@H](O)[C@@H](O)CO", "AUC(0-t)": "169 µg·h/mL"}

----------
Assay: 28-day repeat-dose oral toxicokinetics
Assay type: in vivo, Bama minipig
Conditions: male, Bama, minipig, plasma, po, 1 g/kg, 1.0 g/kg/dose BID (2.0 g/kg/day, NOAEL), Day 28, Male; read-out: Cmax

{"Molecule": "OC[C@@H](O)[C@@H](O)[C@@H](O)CO", "Cmax": "475 µg/mL"}
